Data origin: PubChem BioAssay (NCI)

Listed here are compounds together with their documented TGI.
Tested on: MALME-3M melanoma
measurementProtocol: NCI tumour cell line growth inhibition, 48 h

Ask: Find the measured TGI of O=C1Nc2ccccc2/C1=C\c1c(Cl)nc2n1CCS2 and report it.
Result: 62.1 µM

Ask: Find the measured TGI of Brc1ccc(C2SCc3nc4ccccc4n32)cc1 (stereo not given) and report it.
Result: 30.2 µM

* * *

Listed here are compounds together with their documented TGI.
Tested on: HL-60(TB) leukemia
measurementProtocol: NCI tumour cell line growth inhibition, 48 h

Take a look at these entries with their results.
Ask: Find the measured TGI of NC(=O)CNC(=O)[C@@H]1C[C@@H](OCCC(=O)O)CN1C(=O)OCc1ccccc1 and report it.
Result: > 100 µM

Ask: Find the measured TGI of Cn1c(C(C)(C)OC(=O)Oc2ccccc2)cnc1[N+](=O)[O-] and report it.
Result: > 100 µM

More entries:
Ask: Find the measured TGI of COc1ccc(-c2nc(-c3nc4ccc(C(F)(F)F)cc4[nH]3)c3ccccn23)cc1 and report it.
Result: > 100 µM

Ask: Find the measured TGI of Cc1ccc(NC(=O)/C(=N\NC(N)=O)c2c(O)c3ccccc3[nH]c2=O)cc1 and report it.
Result: > 100 µM

Ask: Find the measured TGI of Cc1c(-c2ccc(O)c(O)c2)oc(=O)c2c(O)cccc12 and report it.
Result: > 100 µM

Ask: Find the measured TGI of O=c1c2c3c(sc2nc2n1N=C(c1ccc([N+](=O)[O-])cc1)CS2)CCCC3 and report it.
Result: > 100 µM

Ask: Find the measured TGI of COCn1c(C)c(C)c2c(=O)oc(C)nc21 and report it.
Result: > 100 µM

Ask: Find the measured TGI of N#C/C(=C\c1cccc2cnccc12)N1N=NC2C=CC=CC21 (stereo not given) and report it.
Result: 24.3 µM

Ask: Find the measured TGI of CC(=O)NC1=C(Sc2ccc(Cl)cc2)C(=O)c2ccccc2C1=O and report it.
Result: 1.63 µM

Ask: Find the measured TGI of O=C1CCCC[C@H]1C(O)CC1CC(=O)N(c2ccccc2)C(=O)C1 (stereo not given in full) and report it.
Result: > 100 µM

Ask: Find the measured TGI of CC(=O)c1ccc2c(c1)N(CCCN(C)C)c1ccccc1S2 and report it.
Result: 41 µM

Ask: Find the measured TGI of CC(=O)c1ccccc1NS(=O)(=O)c1ccc2nc(C)n(NS(=O)(=O)c3ccccc3C(C)=O)c(=O)c2c1 and report it.
Result: > 100 µM

Ask: Find the measured TGI of O=C1CCC2(c3ccccc3)Nc3ccc(Cl)cc3N12 (stereo not given) and report it.
Result: > 100 µM

Ask: Find the measured TGI of NC(=O)SCC(=O)Nc1ccc2ncccc2c1 and report it.
Result: > 100 µM

Ask: Find the measured TGI of CN(C)c1ccc(/C=N/NC(=O)c2cccc3ccccc23)c(Cl)c1 and report it.
Result: 3.64 µM

Ask: Find the measured TGI of Cc1cc(S(N)(=O)=O)c(S/C(=N\Nc2ccc([N+](=O)[O-])cc2)c2ccc3ccccc3c2)cc1Cl and report it.
Result: > 100 µM

Ask: Find the measured TGI of COC(=O)c1ccc(C)cc1CC1Cc2c(C)cccc2C1=O (stereo not given) and report it.
Result: 24.2 µM
